# Test system: Hs-445 (Non-Cancerous);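 note: after 72 h of two-drug dosing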
# ASSAY_REMARKS: Bliss excess, mean over the matrix (fraction); higher = more synergy
Short version: Bliss excess at least 0.01 is Y, less is N.

• COc1cc2ncnc(Nc3ccc(F)c(Cl)c3)c2cc1OCCCN1CCOCC1 [Gefitinib] + CC(C)n1c(=O)n(C)c2cnc3cc(F)c(-c4ccc(OCCCN5CCCCC5)nc4)cc3c21 [AZD1390] (first compound max 10 µM, 7x7, partner max 0.3 µM) = N
• CN(CCO)CC[C@H](CSc1ccccc1)Nc1ccc(S(=O)(=O)NC(=O)c2ccc(N3CCC([C@@H](O)c4ccccc4-c4ccc(Cl)cc4)CC3)cc2)cc1S(=O)(=O)C(F)(F)F [AZD4320] + CCN(CCO)CCCOc1ccc2c(Nc3cc(CC(=O)Nc4cccc(F)c4)[nH]n3)ncnc2c1 [AZD2811] (first compound max 1 µM, 7x7, partner max 1 µM) = Y
• Cc1c2c(nn1C)CSCc1cc(n(C)n1)CSc1cc(c3ccccc3c1)OCCCc1c(C(=O)O)n(C)c3c-2c(Cl)ccc13 [AZD5991] + Cn1cnc2c(F)c(Nc3ccc(Br)cc3Cl)c(C(=O)NOCCO)cc21 [Selumetinib] (first compound max 1 µM, 7x7, partner max 3 µM) = Y
• CCN(CCO)CCCOc1ccc2c(Nc3cc(CC(=O)Nc4cccc(F)c4)[nH]n3)ncnc2c1 [AZD2811] + O=C(c1cc(Cc2n[nH]c(=O)c3ccccc23)ccc1F)N1CCN(C(=O)C2CC2)CC1 [Olaparib] (first compound max 1 µM, 7x7, partner max 10 µM) = Y
• NC1(C(=O)N[C@@H](CCO)c2ccc(Cl)cc2)CCN(c2ncnc3[nH]ccc23)CC1 [Capivasertib] + CC(=O)c1c(C)c2cnc(Nc3ccc(N4CCNCC4)cn3)nc2n(C2CCCC2)c1=O [Palbociclib] (first compound max 10 µM, 7x7, partner max 10 µM) = N

Query string: Check the entry Cc1c2c(nn1C)CSCc1cc(n(C)n1)CSc1cc(c3ccccc3c1)OCCCc1c(C(=O)O)n(C)c3c-2c(Cl)ccc13 [AZD5991] + CC1(C)CCC(CN2CCN(c3ccc(C(=O)NS(=O)(=O)c4ccc(NCC5CCOCC5)c([N+](=O)[O-])c4)c(Oc4cnc5[nH]ccc5c4)c3)CC2)=C(c2ccc(Cl)cc2)C1 [Venetoclax] (first compound max 1 µM, 7x7, partner max 1 µM) : does Bliss excess equal or exceed 0.01?
Result string: Y

Query string: Would you say CN(CCO)CC[C@H](CSc1ccccc1)Nc1ccc(S(=O)(=O)NC(=O)c2ccc(N3CCC([C@@H](O)c4ccccc4-c4ccc(Cl)cc4)CC3)cc2)cc1S(=O)(=O)C(F)(F)F [AZD4320] + C1CN(CCC1(C(=O)N[C@@H](CCO)C2=CC=C(C=C2)Cl)N)C3=NC=NC4=C3C=CN4 [Capivasertib] (first compound max 1 µM, 7x7, partner max 3 µM) shows Bliss excess at minimum 0.01?
Result string: Y

Origin of measurements: the supplement of paper PMC11061612
